System: LOC_OS01G21960-cb002
experiment_summary: thermal shift delta Tm vs DMSO control; higher = stronger stabilization (binding);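 also: purified Escherichia coli-expressed rice kinase domain construct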
experimental_conditions: 12.5 µM; protein concentration 2 µM
Note to self: values exactly at 1 °C are condition met. So thermal shift delta Tm at or above 1 °C is condition met, below is condition not met.

q: Entry N#CC(=C(/N)Sc1ccccc1N)/C(C#N)=C(\N)Sc1ccccc1N : is its thermal shift delta Tm no less than 1 °C?
a: condition not met

q: Dear colleague, could you confirm whether O=c1cc(N2CCOCC2)oc2c(-c3ccc4c(c3)OCCO4)csc12 has thermal shift delta Tm at or above 1 °C?
a: condition not met

q: Does CC(C)n1ncnc1-c1cn2c(n1)-c1ccc(O[C@@H](C)C(N)=O)cc1OCC2 have a reported thermal shift delta Tm of at least 1 °C?
a: condition not met

q: Does COc1cc(OC)cc(-c2cc3cnc(N)nc3nc2NC(=O)NC(C)(C)C)c1 have a reported thermal shift delta Tm of at least 1 °C?
a: condition not met

q: Quick check: does NC1(Cc2ccc(Cl)cc2)CCN(c2ncnc3[nH]ccc23)CC1 have thermal shift delta Tm greater than or equal to 1 °C?
a: condition not met

q: Test whether the compound CN(C)C/C=C/C(=O)Nc1ccc(C(=O)Nc2cccc(Nc3ncc(Cl)c(-c4c[nH]c5ccccc45)n3)c2)cc1 records thermal shift delta Tm of 1 °C or higher.
a: condition met

q: Form field: thermal shift delta Tm at least 1 °C? Entry: CN(C)C[C@@H]1CCn2cc(c3ccccc32)C2=C(C(=O)NC2=O)c2cn(c3ccccc23)CCO1
a: condition met

q: # bool: thermal shift delta Tm of CCCCNc1ncc(-c2ccc(CN3CCOCC3)cn2)c(NC2CCC(O)CC2)n1 (stereo not given) >= 1 °C
a: condition met

q: # bool: thermal shift delta Tm of Oc1ccc(Nc2nc(-c3ccc(Cl)cc3)cs2)cc1 >= 1 °C
a: condition not met

* * *

System: LOC_OS03G50810-cb003
experiment_summary: thermal shift delta Tm vs DMSO control; higher = stronger stabilization (binding)
experimental_conditions: 12.5 µM; protein concentration 2 µM
Where a name gives a salt, the structure may show the parent alone.
readout_kind: thermal shift delta Tm (°C)
A number alone suffices; assume °C.

q: Identify measured thermal shift delta Tm associated with COc1cc(N2CCC(N)CC2)ccc1Nc1ncc(Cl)c(-c2c[nH]c3ccccc23)n1
a: 6.42

q: For the compound Cc1ncc(CO)c(CO)c1O [Pyridoxine] , report thermal shift delta Tm.
a: 0.03

q: Return the recorded thermal shift delta Tm value; entry: Cc1ccc(NC(=O)c2ccc(CN3CCN(C)CC3)cc2)cc1Nc1nccc(-c2cccnc2)n1 [Imatinib Mesylate (STI571)]
a: 0.09

q: Indicate its recorded thermal shift delta Tm; the compound in question is C=CC(=O)Nc1cc(Nc2nccc(-c3cn(C)c4ccccc34)n2)c(OC)cc1N(C)CCN(C)C [Osimertinib (AZD9291)]
a: 2.65

q: Identify the reported thermal shift delta Tm for the following entry. CCS(=O)(=O)c1cccc(-c2cc(C(=O)NC3CCN(C)CC3)c(C)c3[nH]c4ncc(C)cc4c23)c1
a: 5.67

q: Given CCCCCCCCCCCCCCCCOP(=O)([O-])OCC[N+](C)(C)C [Miltefosine] , respond with its thermal shift delta Tm.
a: -3.31

q: Answer with reported thermal shift delta Tm of C#Cc1cccc(Nc2ncnc3cc(OCCOC)c(OCCO)cc23)c1
a: 0.83

q: Supply measured thermal shift delta Tm of COc1ccc(CC(=O)Nc2nc3c(s2)CCc2ccccc2-3)cc1OC in your reply.
a: 0.43

q: Consider the compound CS(=O)(=O)CCNCc1ccc(-c2ccc3ncnc(Nc4ccc(OCc5cccc(F)c5)c(Cl)c4)c3c2)o1 and give its recorded thermal shift delta Tm.
a: 0.17
